Target: T1, human OX40 (CD134), full length, expressed on cells (activated human T cells); EL4-OX40 and CHO-OX40 … (human, UniProt P43489 29-277)
T1 sequence: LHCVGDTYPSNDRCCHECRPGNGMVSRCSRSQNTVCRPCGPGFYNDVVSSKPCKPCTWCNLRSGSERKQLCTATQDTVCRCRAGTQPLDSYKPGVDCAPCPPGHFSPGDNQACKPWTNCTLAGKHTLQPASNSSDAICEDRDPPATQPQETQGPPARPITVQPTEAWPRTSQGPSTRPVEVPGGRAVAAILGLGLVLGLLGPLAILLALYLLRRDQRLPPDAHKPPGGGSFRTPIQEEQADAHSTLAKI
Experiment: cell-based or functional assay
OUTCOME MEASURE: ADCC % Lysis at 10 µg/ml (%)
Write the answer as a number in %, unit excluded.

112Y131 human anti-human OX40 monoclonal antibody (hybridoma ATCC No. PTA-7218) (antibody, V domains shown) VH: QITLKESGPTLVKPTQTLTLTCTFSGFSLSTSGVGVGWIRQPPGKALEWLALIYWDDHSPYSPSLKSRLTITKDTSKNQVVLTMTNMDPVDTATYYCARTRGAFDIWGQGTMVTVSS VL: EIVLTQSPATLSLSPGERATLSCRASQGVSSYLAWYQQKPGQAPRLLIYDASNRATGIPARFSGSGPGTDFTLTISSLEPEDFAVYYCQQRSNWHPTFGQGTKVEIK : 18
112Y55 human anti-human OX40 monoclonal antibody (hybridoma ATCC No. PTA-7220) (antibody, V domains shown) VH: QITLKESGPTLVKPTQTLTLSCTFSGFSLSTSGVGVGWIRQPPGKALEWLALIHWDDAERYSPSLKSRLTITKDTSKNQVVLTMTNMDLVDTATYYCAHTRGAFDIWGQGTMVTVSS VL: EIVLTQSPGTLSLSPGERAILSCRASQSVSSSFLAWYQQKPGQAPRLLIYGAFSRATGIPDRFSGSGSGTDFTLTISRLEPEDFAVYYCQQYDSSRTFGQGTKVEIK : 54.2

Q: # lookup: ADCC % Lysis at 10 µg/ml of recombinant 112F32G1 antibody (112F32 variable regions in human IgG1) (antibody, V domains shown) VH: GVQLVESGGGLVQPGGSLRLSCAASGFTFSSYSMNWVRQAPGKGLEWVSYISSSSSTIYYADSVKGRFTISRDNAKNSLYLQMNSLRDEDTAVYYCARGVYHNGWSFFDYWGQGTLLTVSS VL: DIQMTQSPSSLSASVGNRVTITCRASQDISSWLAWYQQKPEKAPKSLIYAASSLQSGVPSRFSGSGSGTDFTLTISSLQPEDFATYYCQQYNSYPLTFGQGTRLEIKR
A: 37
